Can you tell me growth inhibition for the items I'm about to list?
Assay: NCI Yeast Anticancer Drug Screen. Data for the wt2 strain (AID 169);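 note: 0% = growth of vehicle-treated yeast cultures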
Conditions: S. cerevisiae wt2 strain growth inhibition; at 1.2 µM; hits give high values
About 79,000 compounds went through this panel and 15% of them were active in at least one assay; those are over-represented in the sample as a whole.
Dear colleague, please return just the value in %, with no unit written.

Q) Need growth inhibition of N#Cc1sc2c(c1OC(=O)c1ccco1)c(=O)n(-c1ccccc1)c(=S)n2-c1ccccc1 , thanks.
A) -1

Q) Try the compound O=C(/C=C/c1cccc(Br)c1)c1ccc(Cl)cc1
A) -31

Q) Try the compound CO[C@@]12[C@H](COC(N)=O)C3=C(C(=O)C(C)=C(N)C3=O)N1C[C@@H]1N[C@@H]12
A) -1

Q) Try the compound Nc1nc(N)c2c(n1)CCC(S(=O)(=O)c1ccc3ccccc3c1)C2 (centres undefined)
A) -35

Q) Try the compound COc1ccc(N=Nc2ccc3oc(=O)c(C(=O)Nc4ccccc4)cc3c2)cc1
A) 1

Q) Try the compound COc1ccc2oc(-c3ccc(Cl)cc3)c(N3CCN(C)CC3)c2c1
A) 0

Q) Try the compound CN(N=O)C(=O)N[C@@H](C=O)[C@@H](O)[C@H](O)[C@H](O)CO
A) -3

Q) Try the compound CCN(CC)N=Nc1c(C(N)=O)n[nH]c1C
A) -1

Q) Try the compound CCCCC(CC)C(=O)Oc1ccc(C(=O)c2ccccc2)c(O)c1 (centres undefined)
A) -18

Q) Try the compound Cc1ccc(Nc2n[nH]c(=S)s2)cc1
A) -12

Q) Try the compound C=Cc1cnc([N+](=O)[O-])n1C
A) -31

Q) Try the compound CCCc1[nH]nc(C(N)=O)c1N=NN(C)C
A) -1

Q) Try the compound CN(C)CCN1C(=O)c2cccc3cc([N+](=O)[O-])cc(c23)C1=O
A) -3

Q) Try the compound Cc1c2cc[n+](CCN3CCCCC3)cc2c(C)c2c1[nH]c1ccc(O)cc12
A) 5

Q) Try the compound Cc1cccc(/C=N\NC(=S)N2CCCCC2)n1
A) 7

Q) Try the compound N#CC(=C1C=CC(=NO)C=C1)c1ccccc1
A) 4

Q) Try the compound O=Nn1c2ccccc2c2cc([N+](=O)[O-])ccc21
A) -28

Q) Try the compound CC(=O)[C@]1(O)Cc2c(O)c3c(c(O)c2[C@@H](OC2CC(N)C(O)C(C)O2)C1)C(=O)c1c(OCc2ccccc2)cccc1C3=O (some centres undefined)
A) -69

Q) Try the compound CCN(CC)CCNC(=O)c1nn(-c2ccc(Cl)cc2)c2c1CCc1cc(OC)ccc1-2
A) -11

Q) Try the compound Cc1ccc(CNc2ccc(Br)cc2)cc1
A) -31

Q) Try the compound CC(C)(O)c1ccccc1C(c1ccccc1)c1ccccc1
A) -9

Q) Try the compound Oc1ccccc1N=Cc1ccc(Cl)cc1
A) 14

Q) Try the compound NC(N)=N/N=C/c1cc(Cl)cc(Cl)c1O
A) -49

Q) Try the compound Cc1ccc(I)cc1N=C=S
A) -21

Q) Try the compound O=NN(CCCl)C(=O)NC1CCCCC1
A) -3

Q) Try the compound COc1cc([C@@H]2c3cc4c(cc3[C@@H](OC3OC5COC(C)OC5C(O)C3O)[C@H]3COC(=O)[C@H]23)OCO4)cc(OC)c1O (some centres undefined)
A) -3

Q) Try the compound CCCCCCSc1nc(COC(=O)NC)c(COC(=O)NC)n1C
A) -3

Q) Try the compound CC(=O)[O-].O=C([CH-]C(=O)c1ccccc1)c1ccccc1.O=C([CH-]C(=O)c1ccccc1)c1ccccc1.[Sm+3]
A) 1

Q) Try the compound COc1ccc(/C(C#N)=C/c2ccc(OC)c(OC)c2)cc1
A) -49

Q) Try the compound COCCCN(Cc1cc(OC)c(OC)c(OC)c1)C(=S)Nc1cccc(Cl)c1
A) 5

Q) Try the compound O=C(CCc1ccccc1)ON1C(=S)C(c2ccccc2)(c2ccccc2)N=C1Sc1ccccc1
A) 1

Q) Try the compound Cc1cccc2c1N=C(C(F)(F)F)CC2=O
A) -2

Q) Try the compound CC(=O)Oc1ccc(N2C(=O)C3c4[nH]c5ccccc5c4C4CCC(C(C)(C)C)CC4C3C2=O)cc1 (centres undefined)
A) -4

Q) Try the compound O=C1C=CC(=O)N1c1ccc2c(c1)OCO2
A) 17

* * *

Experiment: NCI Yeast Anticancer Drug Screen. Data for the bub3 strain (AID 167)
Conditions: S. cerevisiae bub3 mutant strain, at 1.2 µM, hits give high values
The panel holds about 79,000 compounds, 15% with a hit somewhere; the sample as a whole holds those more often.
Can you tell me growth inhibition for the items I'm about to list?
Dear colleague, please return just the value in %, with no unit written.

Q) Need growth inhibition of On1cnc(=S)c2[nH]cnc21 , thanks.
A) -29

Q) Try the molecule O=C1C=CC(=O)N1c1ccc(I)cc1
A) 5

Q) Try the molecule O=C1C=CC(=Nc2ccccc2)c2ccccc21
A) 12

Q) Try the molecule CC1=CCC(C(C)(C)c2ccc(O)cc2)CC1 (stereo not given)
A) 7

Q) Try the molecule Nc1ccc(S(=O)(=O)Nc2ccc(Nc3c4ccccc4nc4ccccc34)cc2)cc1
A) 8

Q) Try the molecule CCOC(=O)C1=C(C)NC(C)=C(C(=O)OCC)C1c1ccc(C)cc1
A) 61

Q) Try the molecule COc1cc(/C=C/c2sc3ccccc3[n+]2C)ccc1N(C)C
A) -2

Q) Try the molecule CCNc1ccc2c(c1)C(=O)N(OS(C)(=O)=O)C2=O
A) -2

Q) Try the molecule O=c1ccc(N=Nc2ccccc2)ccc1O
A) 10

Q) Try the molecule COc1ccc(N2C(=O)CC(Cl)C2=O)cc1 (stereo not given)
A) -15

* * *

Assay: NCI Yeast Anticancer Drug Screen. Data for the mec2-1 strain (AID 157)
Settings: S. cerevisiae mec2-1 strain, at 11.0 µM, hits give high values
Compounds without any hit were thinned out: in the full panel of roughly 79,000, 15% have a hit.
Readout: growth inhibition (%)
Dear colleague, please return just the value in %, with no unit written.

Q) Need growth inhibition of CN(C)CC1CCCc2ccccc2C1=O (stereo unspecified) , thanks.
A) -7

Q) Try the molecule COc1ccc(S(=O)(=O)N/N=C\c2cc([N+](=O)[O-])cc(I)c2O)c(OC)c1OC
A) -7

Q) Try the molecule CCN(CC)N=Nc1c(C(N)=O)n[nH]c1C
A) 8

Q) Try the molecule COc1cc(NCc2ccc3nc(N)nc(N)c3c2C)cc(OC)c1OC
A) 39

Q) Try the molecule O=C1C=CC(=O)N1c1ccc(N2C(=O)C=CC2=O)cc1
A) 100

Q) Try the molecule CC(C)c1cccc(O)c(=O)c1
A) 6

Q) Try the molecule Cc1ccc(CNc2ccc(Br)cc2)cc1
A) 17

Q) Try the molecule O=C1c2c(O)cccc2-c2nn(CCNCCO)c3ccc(NCCNCCO)c1c23
A) 40

Q) Try the molecule Nc1nc(F)nc2c1ncn2C1OC(COP(=O)(O)O)C(O)C1O (stereo unspecified)
A) 13

Q) Try the molecule CCCCCC(=O)c1ccc(O)cc1O
A) 10

Q) Try the molecule CN(C)c1ccc(N=Nc2ccccn2)cc1
A) 14

Q) Try the molecule C=C1N(C)c2ccc(Cl)cc2C1(C)C
A) -8

Q) Try the molecule COc1cc2c(cc1C[N+](C)(C)CSc1ccccc1)-c1ccccc1CC2
A) 80

Q) Try the molecule CCn1ncc(N=O)c1N
A) 23

Q) Try the molecule O=[N+]([O-])c1c(/C=N/Nc2ccccc2)oc(-c2ccc3c(c2)OCO3)c1-c1ccc2c(c1)OCO2
A) 8

Q) Try the molecule COc1cc(CNc2ccc(C(C)C)cc2)cc(OC)c1OC
A) -4

Q) Try the molecule CSc1s[s+]c(SC)c1-c1ccccc1
A) 1

Q) Try the molecule CC1=CC2C(C(C)C)CC1C1C(=O)OC(=O)C21 (stereo unspecified)
A) -2

Q) Try the molecule Nc1nc2c(c(=O)[nH]1)NC(CCNc1ccc(C(=O)O)cc1)CN2 (stereo unspecified)
A) 4

Q) Try the molecule O=C(CCc1ccccc1)ON1C(=S)C(c2ccccc2)(c2ccccc2)N=C1Sc1ccccc1
A) 6

Q) Try the molecule COc1ccc(N=N/C(=N\NC(=O)c2cc(Br)ccc2O)c2ccc(N(CCC#N)CCC#N)cc2OC)cc1
A) -8

Q) Try the molecule CC(C)c1[nH]nc(C(N)=O)c1N=NN(C)C
A) -10

Q) Try the molecule Cc1ccc(N=Nc2ccc(O)c(C)c2)cc1
A) 80

Q) Try the molecule CCC(NC(C)c1ccccc1)C(=O)c1ccc(OCc2ccccc2)c(OCc2ccccc2)c1 (stereo unspecified)
A) 35

Q) Try the molecule CN=C(N)N/N=C(\C)c1ccc2oc3ccc(/C(C)=N/NC(N)=NC)cc3c2c1
A) 15

Q) Try the molecule CCN1/C(=C/c2ccc3ccccc3[n+]2CC)C=Cc2ccccc21
A) 98

Q) Try the molecule Cc1cccc(/C=N/NC(=S)N(C)CCc2ccccn2)n1
A) 98

Q) Try the molecule CC(C)(C)[OH+][O-].[O-]c1ccc(Cl)cc1C=Nc1ccc(Cl)cc1[O-].[O]=[V]
A) 13

Q) Try the molecule CCOc1ccc(C(=O)CCC(=O)O)c(C)c1
A) -16

Q) Try the molecule Cc1onc(-c2ccccc2Cl)c1C1=N/C(=C/c2cc(Cl)cc(Cl)c2O)C(=O)O1
A) -39

Q) Try the molecule Cc1cccc2c1N=C(C(F)(F)F)CC2=O
A) -5

Q) Try the molecule N#C/C(=C1C=C(Br)/C(=N\O)C=C\1Cl)c1cccc2ccccc12
A) 89

Q) Try the molecule O=C1c2ccccc2C(=O)c2cc(S(=O)(=O)Nc3ccccc3)ccc21
A) 12

Q) Try the molecule COc1cc(N)ccc1Nc1c2ccccc2nc2ccccc12
A) -27

Q) Try the molecule N#Cc1sc2c(c1OC(=O)c1ccco1)c(=O)n(-c1ccccc1)c(=S)n2-c1ccccc1
A) -2

Q) Try the molecule CN(C)CCNc1cccc2sc3ccc(O)cc3c(=O)c12
A) 8
